# Measured on: T1, Y103G-Ube2g2 (human, UniProt P60604 1-165, Y103G)
# T1 sequence: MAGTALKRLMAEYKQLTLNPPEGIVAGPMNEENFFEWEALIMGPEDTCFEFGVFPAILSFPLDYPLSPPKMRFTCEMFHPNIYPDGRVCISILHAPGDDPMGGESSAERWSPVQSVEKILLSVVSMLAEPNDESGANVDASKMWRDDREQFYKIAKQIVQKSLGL
# Measurement protocol: ITC
Parameter: Kd (nM)
Expressed in nM, but write only the number.

(Q) Please give the measured Kd for this binder: WSADERQRMLVQRKDELLQQARKRFLNK [G2BR peptide of gp78 (Ube2g2 binding region)]
(A) 59
